study.target: rhCatC (Homo sapiens (Human))
Sequence (P53634 25-134): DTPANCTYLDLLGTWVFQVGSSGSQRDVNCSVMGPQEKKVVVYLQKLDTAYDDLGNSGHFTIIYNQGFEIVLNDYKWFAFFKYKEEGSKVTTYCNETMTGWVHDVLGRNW
Sequence (P53634 231-394): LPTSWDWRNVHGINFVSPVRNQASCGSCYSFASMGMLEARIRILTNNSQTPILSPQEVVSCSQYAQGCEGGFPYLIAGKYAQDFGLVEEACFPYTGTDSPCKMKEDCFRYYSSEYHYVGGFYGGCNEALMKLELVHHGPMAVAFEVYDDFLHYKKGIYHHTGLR
Sequence (P53634 395-463): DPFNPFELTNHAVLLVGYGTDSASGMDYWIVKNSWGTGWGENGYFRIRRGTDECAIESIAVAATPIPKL
assay.overview: In vitro enzyme activity experiment of rhCatC (AMC fluorescence assay)
Assay type: biochemical
run.conditions: rhCatC enzyme, substrate H-Gly-Arg-AMC; read-out: Biological activity IC50
Structures can show the parent of a compound that is named as a salt.

{"molecule": "N#C[C@H](Cc1ccc2c(c1)COCC2)NC(=O)C1(N)CCOCC1 [Compound 52, trifluoroacetate]", "value.unit": "nM", "IC50": 138}
{"molecule": "N#CC(Cc1cc2c(cc1F)-c1ccc(F)cc1CO2)NC(=O)C1(N)CCOCC1 (stereo not shown)", "value.unit": "nM", "IC50": 2.7}
{"molecule": "N#C[C@H](Cc1ccc2c(c1)CCN(C(=O)c1ccc(F)cc1)C2)NC(=O)C1(N)CCOCC1", "value.unit": "nM", "IC50": 37}
{"molecule": "Cn1c(=O)oc2ccc(N3Cc4cc(C[C@@H](C#N)NC(=O)C5(N)CCOCC5)ccc4C3=O)cc21", "value.unit": "nM", "IC50": 29}
{"molecule": "N#C[C@H](Cc1cc2c(cc1F)-c1ccc(F)cc1CO2)NC(=O)[C@@H]1CNCCCO1", "value.unit": "nM", "IC50": 11}
{"molecule": "N#C[C@H](Cc1cc2c(cc1F)-c1cc(C3COC3)c(F)cc1CO2)NC(=O)[C@@H]1CNCCCO1 [Compound 38A]", "value.unit": "nM", "IC50": 1.3}
{"molecule": "N#CC(Cc1cc2c(cc1F)-c1ccc(F)cc1CO2)NC(=O)[C@@H]1CNCCCO1 (stereo partly shown)", "value.unit": "nM", "IC50": 16}
{"molecule": "N#C[C@H](Cc1ccc2c(c1)CCN(c1ccccc1)C2=O)NC(=O)C1(N)CCOCC1", "value.unit": "nM", "IC50": 57}
{"molecule": "N#CC(Cc1ccc2c(c1)OCCc1cc(F)ccc1-2)NC(=O)C1(N)CCOCC1 (stereo not shown)", "value.unit": "nM", "IC50": 7.1}
{"molecule": "N#CC(Cc1ccc2c(c1)OCc1ccc(C3CCNC3)cc1-2)NC(=O)C1(N)CCOCC1 (stereo not shown)", "value.unit": "nM", "IC50": 6.2}
{"molecule": "N#Cc1ccc(C(=O)N2Cc3ccc(C[C@@H](C#N)NC(=O)C4(N)CCOCC4)cc3C2)cc1", "value.unit": "nM", "IC50": 54}
{"molecule": "N#CC(Cc1ccc2c(c1)OCc1cc(F)ccc1-2)NC(=O)[C@@H]1CNCCCO1 (stereo partly shown) [Compound 11, formate]", "value.unit": "nM", "IC50": 74}
{"molecule": "CN1CCc2cc(C[C@@H](C#N)NC(=O)C3(N)CCOCC3)ccc2C1", "value.unit": "nM", "IC50": 39}
{"molecule": "N#C[C@@H](Cc1cc2c(cc1F)-c1cc(C3COC3)c(F)cc1CO2)NC(=O)[C@@H]1CNCCCO1 [Compound 38B]", "value.unit": "nM", "IC50": 76}
{"molecule": "N#C[C@H](Cc1ccc2c(c1)OCCN(c1ccc(F)cc1)C2=O)NC(=O)C1(N)CCOCC1", "value.unit": "nM", "IC50": 39}
{"molecule": "N#Cc1ccc2c(c1)COc1cc(C[C@@H](C#N)NC(=O)[C@@H]3C[C@@H]4CCC[C@@H]4N3)c(F)cc1-2", "value.unit": "nM", "IC50": 8.9}
